Give measured Minimum inhibitory concentration for each item. Keep answers brief.
# Tested on: Pseudomonas aeruginosa ATCC 27853
# Format: cell-based
# settings: ATCC 27853
Where a SMILES comes first, the peptide text is derived from it. Bridges are numbered along the chain shown (N, C = ends). [ ]: non-standard residue; d: D form. The star is where a group is joined. Benzothiazole(2-CH2CH2CO) = O=C(CCc1nc2ccccc2s1)*; X13 = O=C(c1ccnc(Br)c1)*; Dab = NCC[C@H](N)C(=O)O; Abu = CC[C@H](N)C(=O)O; Dap = NC[C@H](N)C(=O)O; X8 = O=C(c1ccnc(F)c1)*
Reply with just the number (in µg/mL).

Input: Which Minimum inhibitory concentration reading was recorded for the molecule CC[C@@H]1NC(=O)[C@@H](CC(C)C)NC(=O)[C@H](CCN)NC(=O)[C@@H](NC(=O)[C@H](CN)NC(=O)[C@@H](NC(=O)[C@H](CCN)NC(=O)CCc2nc3ccccc3s2)[C@@H](C)O)CCNC(=O)[C@H]([C@@H](C)O)NC(=O)[C@H](CCN)NC(=O)[C@H](CCN)NC1=O [Compound 72] ({Benzothiazole(2-CH2CH2CO)}-[Dab]T[Dap][Dab][Dab][dL][Abu][Dab][Dab]T; lactam 4-C) ?
Output: 0.5

Input: Which Minimum inhibitory concentration reading was recorded for the molecule CC[C@@H]1NC(=O)[C@@H](CC(C)C)NC(=O)[C@H](CCN)NC(=O)[C@@H](NC(=O)[C@H](CN)NC(=O)[C@@H](NC(=O)[C@H](CCN)NC(=O)c2ccnc(F)c2)[C@@H](C)O)CCNC(=O)[C@H]([C@@H](C)O)NC(=O)[C@H](CCN)NC(=O)[C@H](CCN)NC1=O [Compound 31] (X8-[Dab]T[Dap][Dab][Dab][dL][Abu][Dab][Dab]T; lactam 4-C) ?
Output: 0.25

Input: Which Minimum inhibitory concentration reading was recorded for the molecule CC[C@@H]1NC(=O)[C@@H](CC(C)C)NC(=O)[C@H](CCN)NC(=O)[C@@H](NC(=O)[C@H](CN)NC(=O)[C@@H](NC(=O)[C@H](CCN)NC(=O)c2ccnc(Br)c2)[C@@H](C)O)CCNC(=O)[C@H]([C@@H](C)O)NC(=O)[C@H](CCN)NC(=O)[C@H](CCN)NC1=O [Compound 25] (X13-[Dab]T[Dap][Dab][Dab][dL][Abu][Dab][Dab]T; lactam 4-C) ?
Output: 0.25

----------
# Test system: Klebsiella pneumoniae Kp BM1
# Type: cell-based
# settings: Kp BM1
Where a SMILES comes first, the peptide text is derived from it. Bridges are numbered along the chain shown (N, C = ends). [ ]: non-standard residue; d: D form. The star is where a group is joined. Isoxazole(3-CO,5-Ph) = O=C(c1cc(-c2ccccc2)on1)*; X55 = O=C(c1ccc(-c2ccc(Cl)nc2)cc1)*; Quinaldoyl = O=C(c1ccc2ccccc2n1)*; X1 = O=C(c1ncc(Cl)cc1Cl)*; Dab = NCC[C@H](N)C(=O)O; X3 = O=C(c1cncc(Cl)c1)*; Abu = CC[C@H](N)C(=O)O; Dap = NC[C@H](N)C(=O)O
measured-quantity: Minimum inhibitory concentration

Input: Which Minimum inhibitory concentration reading was recorded for the compound CC(C)C[C@H]1NC(=O)[C@H](CCN)NC(=O)[C@@H](NC(=O)[C@H](CN)NC(=O)[C@@H](NC(=O)[C@H](CCN)NC(=O)c2ccc(-c3ccc(Cl)nc3)cc2)[C@@H](C)O)CCNC(=O)[C@H]([C@@H](C)O)NC(=O)[C@H](CCN)NC(=O)[C@H](CCN)NC(=O)[C@H]([C@@H](C)O)NC1=O [Compound 16] (X55-[Dab]T[Dap][Dab][Dab][dL]T[Dab][Dab]T; lactam 4-C) ?
Output: 2 mg/L

Input: Which Minimum inhibitory concentration reading was recorded for the compound CC[C@@H]1NC(=O)[C@@H](CC(C)C)NC(=O)[C@H](CCN)NC(=O)[C@@H](NC(=O)[C@H](CN)NC(=O)[C@@H](NC(=O)[C@H](CCN)NC(=O)c2cc(-c3ccccc3)on2)[C@@H](C)O)CCNC(=O)[C@H]([C@@H](C)O)NC(=O)[C@H](CCN)NC(=O)[C@H](CCN)NC1=O [Compound 80] ({Isoxazole(3-CO,5-Ph)}-[Dab]T[Dap][Dab][Dab][dL][Abu][Dab][Dab]T; lactam 4-C) ?
Output: 0.25 mg/L

Input: Which Minimum inhibitory concentration reading was recorded for the compound CC[C@@H]1NC(=O)[C@@H](CC(C)C)NC(=O)[C@H](CCN)NC(=O)[C@@H](NC(=O)[C@H](CN)NC(=O)[C@@H](NC(=O)[C@H](CCN)NC(=O)c2cncc(Cl)c2)[C@@H](C)O)CCNC(=O)[C@H]([C@@H](C)O)NC(=O)[C@H](CCN)NC(=O)[C@H](CCN)NC1=O [Compound 6] (X3-[Dab]T[Dap][Dab][Dab][dL][Abu][Dab][Dab]T; lactam 4-C) ?
Output: 0.5 mg/L

Input: Which Minimum inhibitory concentration reading was recorded for the compound CC[C@@H]1NC(=O)[C@@H](CC(C)C)NC(=O)[C@H](CCN)NC(=O)[C@@H](NC(=O)[C@H](CN)NC(=O)[C@@H](NC(=O)[C@H](CCN)NC(=O)c2ncc(Cl)cc2Cl)[C@@H](C)O)CCNC(=O)[C@H]([C@@H](C)O)NC(=O)[C@H](CCN)NC(=O)[C@H](CCN)NC1=O [Compound 1] (X1-[Dab]T[Dap][Dab][Dab][dL][Abu][Dab][Dab]T; lactam 4-C) ?
Output: 0.25 mg/L

Input: Which Minimum inhibitory concentration reading was recorded for the compound CC[C@@H]1NC(=O)[C@@H](CC(C)C)NC(=O)[C@H](CCN)NC(=O)[C@@H](NC(=O)[C@H](CN)NC(=O)[C@@H](NC(=O)[C@H](CCN)NC(=O)c2ccc3ccccc3n2)[C@@H](C)O)CCNC(=O)[C@H]([C@@H](C)O)NC(=O)[C@H](CCN)NC(=O)[C@H](CCN)NC1=O [Compound 55] (Quinaldoyl-[Dab]T[Dap][Dab][Dab][dL][Abu][Dab][Dab]T; lactam 4-C) ?
Output: 0.5 mg/L

----------
# System: Acinetobacter baumannii FADDI-AB030
# assay-info: microbe, parasite or virus in culture
# Assay type: cell-based
# settings: FADDI-AB030
Where a SMILES comes first, the peptide text is derived from it. Bridges are numbered along the chain shown (N, C = ends). [ ]: non-standard residue; d: D form. The star is where a group is joined. X41 = O=C(c1cc2cc(F)c(F)cc2[nH]1)*; X57 = O=C(c1nc2cc(Cl)ccc2[nH]1)*; Dab = NCC[C@H](N)C(=O)O; X10 = O=C(c1cc(Br)cs1)*; X60 = O=C(c1cnc(Br)s1)*; X61 = O=C(c1ccc(Br)s1)*; Abu = CC[C@H](N)C(=O)O; Dap = NC[C@H](N)C(=O)O; X8 = O=C(c1ccnc(F)c1)*
measured-quantity: Minimum inhibitory concentration (µg/mL)
Reply with just the number (in µg/mL).

Input: Missing value: Minimum inhibitory concentration, Acinetobacter baumannii FADDI-AB030, entry CC[C@@H]1NC(=O)[C@@H](CC(C)C)NC(=O)[C@H](CCN)NC(=O)[C@@H](NC(=O)[C@H](CN)NC(=O)[C@@H](NC(=O)[C@H](CCN)NC(=O)c2nc3cc(Cl)ccc3[nH]2)[C@@H](C)O)CCNC(=O)[C@H]([C@@H](C)O)NC(=O)[C@H](CCN)NC(=O)[C@H](CCN)NC1=O [Compound 71] (X57-[Dab]T[Dap][Dab][Dab][dL][Abu][Dab][Dab]T; lactam 4-C) . Fill in?
Output: 0.25

Input: Missing value: Minimum inhibitory concentration, Acinetobacter baumannii FADDI-AB030, entry CC[C@@H]1NC(=O)[C@@H](CC(C)C)NC(=O)[C@H](CCN)NC(=O)[C@@H](NC(=O)[C@H](CN)NC(=O)[C@@H](NC(=O)[C@H](CCN)NC(=O)c2ccc(Br)s2)[C@@H](C)O)CCNC(=O)[C@H]([C@@H](C)O)NC(=O)[C@H](CCN)NC(=O)[C@H](CCN)NC1=O [Compound 78] (X61-[Dab]T[Dap][Dab][Dab][dL][Abu][Dab][Dab]T; lactam 4-C) . Fill in?
Output: 0.5

Input: Missing value: Minimum inhibitory concentration, Acinetobacter baumannii FADDI-AB030, entry CC[C@@H]1NC(=O)[C@@H](CC(C)C)NC(=O)[C@H](CCN)NC(=O)[C@@H](NC(=O)[C@H](CN)NC(=O)[C@@H](NC(=O)[C@H](CCN)NC(=O)c2cc3cc(F)c(F)cc3[nH]2)[C@@H](C)O)CCNC(=O)[C@H]([C@@H](C)O)NC(=O)[C@H](CCN)NC(=O)[C@H](CCN)NC1=O [Compound 60] (X41-[Dab]T[Dap][Dab][Dab][dL][Abu][Dab][Dab]T; lactam 4-C) . Fill in?
Output: 0.5

Input: Missing value: Minimum inhibitory concentration, Acinetobacter baumannii FADDI-AB030, entry CC[C@@H]1NC(=O)[C@@H](CC(C)C)NC(=O)[C@H](CCN)NC(=O)[C@@H](NC(=O)[C@H](CN)NC(=O)[C@@H](NC(=O)[C@H](CCN)NC(=O)c2ccnc(F)c2)[C@@H](C)O)CCNC(=O)[C@H]([C@@H](C)O)NC(=O)[C@H](CCN)NC(=O)[C@H](CCN)NC1=O [Compound 31] (X8-[Dab]T[Dap][Dab][Dab][dL][Abu][Dab][Dab]T; lactam 4-C) . Fill in?
Output: 2

Input: Missing value: Minimum inhibitory concentration, Acinetobacter baumannii FADDI-AB030, entry CC[C@@H]1NC(=O)[C@@H](CC(C)C)NC(=O)[C@H](CCN)NC(=O)[C@@H](NC(=O)[C@H](CN)NC(=O)[C@@H](NC(=O)[C@H](CCN)NC(=O)c2cc(Br)cs2)[C@@H](C)O)CCNC(=O)[C@H]([C@@H](C)O)NC(=O)[C@H](CCN)NC(=O)[C@H](CCN)NC1=O [Compound 88] (X10-[Dab]T[Dap][Dab][Dab][dL][Abu][Dab][Dab]T; lactam 4-C) . Fill in?
Output: 0.5

Input: Missing value: Minimum inhibitory concentration, Acinetobacter baumannii FADDI-AB030, entry CC[C@@H]1NC(=O)[C@@H](CC(C)C)NC(=O)[C@H](CCN)NC(=O)[C@@H](NC(=O)[C@H](CN)NC(=O)[C@@H](NC(=O)[C@H](CCN)NC(=O)c2cnc(Br)s2)[C@@H](C)O)CCNC(=O)[C@H]([C@@H](C)O)NC(=O)[C@H](CCN)NC(=O)[C@H](CCN)NC1=O [Compound 91] (X60-[Dab]T[Dap][Dab][Dab][dL][Abu][Dab][Dab]T; lactam 4-C) . Fill in?
Output: 1
